target: NAMPT (Homo sapiens (Human), UniProt P43490); assay: Biochemical Inhibition Assay (NAMPT enzymatic reaction, NMN quantified by mass spectrometry); settings: recombinant His-tagged NAMPT, 33 nM; 1 μM NAM; read-out: Biochem IC50
Sequence (P43490 whole entry): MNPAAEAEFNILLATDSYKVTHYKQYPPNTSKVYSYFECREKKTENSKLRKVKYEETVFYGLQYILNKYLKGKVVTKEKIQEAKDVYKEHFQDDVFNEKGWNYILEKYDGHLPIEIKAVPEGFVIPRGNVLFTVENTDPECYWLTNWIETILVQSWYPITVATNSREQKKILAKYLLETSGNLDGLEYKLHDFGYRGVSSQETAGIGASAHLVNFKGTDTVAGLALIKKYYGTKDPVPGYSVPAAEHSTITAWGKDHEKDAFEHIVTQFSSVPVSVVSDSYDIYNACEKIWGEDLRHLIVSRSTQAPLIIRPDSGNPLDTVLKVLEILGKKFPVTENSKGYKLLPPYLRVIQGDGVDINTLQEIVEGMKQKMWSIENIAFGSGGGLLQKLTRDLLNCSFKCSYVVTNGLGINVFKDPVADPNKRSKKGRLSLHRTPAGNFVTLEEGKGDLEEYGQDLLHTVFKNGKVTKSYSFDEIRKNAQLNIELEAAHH
pIC50: −log10 of the molar value.
Where pIC50 equals or exceeds 8, the correct label is T; where it does not, the label is F.

Is pIC50 for O=C(/C=C/c1cccnc1)Nc1ccc(S(=O)(=O)c2cccc(Cl)c2)cc1 at or above 8?
F

Evaluate O=C(/C=C/c1cccnc1)Nc1ccc(S(=O)(=O)c2cccc3ccccc23)cc1 : pIC50 at minimum 8?
T

Please indicate if the recorded pIC50 for CC(C)COc1cc(F)cc(S(=O)(=O)c2ccc(NC(=O)/C=C/c3cccnc3)cc2)c1 meets or exceeds 8.
F

Decide: is the reported value of pIC50 for O=C(/C=C/c1cccnc1)Nc1ccc(S(=O)(=O)c2ccc(-n3cccn3)cc2)cc1 equal to or greater than 8?
F

Could you verify whether the entry Cc1cc(F)cc(S(=O)(=O)c2ccc(NC(=O)/C=C/c3cccnc3)cc2)c1 shows pIC50 of no less than 8?
F
